Data origin: PubChem BioAssay AID1996

The reader will find reported solubility kinetic values listed item by item below.
conditions: buffer; pH 7.4; 200.0 µM
metric.name: solubility kinetic

[[record]]
compound = "O=C(O)COc1ccccc1/C=N/NC(=O)c1ccc(F)cc1"
measurement = "> 47.4 µg/mL"

[[record]]
compound = "CC(C)(C)c1ccc(NC(=O)Nc2ccc3ccccc3n2)cc1"
measurement = "< 0.2 µg/mL"

[[record]]
compound = "Cn1c(=O)c2c(nc(SCCN3CCOCC3)n2C)n(C)c1=O"
measurement = "> 50.9 µg/mL"

[[record]]
compound = "CC(Oc1ccccc1)C(=O)N1CCc2ccccc2C1 (centres undefined)"
measurement = "> 42.2 µg/mL"

[[record]]
compound = "O=C(O)c1cc([N+](=O)[O-])c(NCCC2=CCCCC2)c([N+](=O)[O-])c1"
measurement = "> 50.3 µg/mL"

[[record]]
compound = "O=C(NCCO)C1COc2ccccc2O1 (centres undefined)"
measurement = "> 33.5 µg/mL"

[[record]]
compound = "O=C(NCCNC(=O)c1cccc(O)c1)c1cccc(O)c1"
measurement = "> 45 µg/mL"

[[record]]
compound = "Cc1ccc(C)c(NC(=O)CN(C)C(=O)C2CCCC2)c1"
measurement = "> 43.3 µg/mL"

[[record]]
compound = "O=S(=O)(/N=C(\\[O-])C[n+]1ccccc1)c1ccc(Cl)cc1"
measurement = "> 46.6 µg/mL"

